So I've got a bunch of compounds here, and I need their melting point values.

Reference set, count: 10
C[C@@H]1OCCN(c2cc(N3CCOCC3)nc(-n3c(N)nc4ccccc43)n2)[C@H]1C.Cl (relative stereo) [compound 31]
141 to 145 °C
C[C@@H]1OCCN(c2cc(N3CCOCC3)nc(-n3c(C(F)F)nc4ccc(N)cc43)n2)[C@@H]1C (relative stereo) [compound 36]
155 to 158 °C (dec.)
C[C@@H]1OCCN(c2cc(N3CCOCC3)nc(-n3c(CF)nc4ccccc43)n2)[C@@H]1C (relative stereo) [compound 9]
163 to 165 °C
C[C@@H]1OCCN(c2cc(N3CCOCC3)nc(-n3c(N)nc4ccccc43)n2)[C@@H]1C (relative stereo) [Example 2]
129 to 133 °C
C[C@@H]1COC(C)(C)CN1c1nc(N2CCOCC2)nc(-n2c(C(F)F)nc3ccccc32)n1 [compound 20]
169 to 171 °C
C[C@@H]1OCCN(c2cc(N3CCOCC3)nc(-n3c(CO)nc4ccccc43)n2)[C@@H]1C (relative stereo) [compound 10]
125 to 128 °C
CC1(C)CN(c2nc(N3CCOCC3)nc(-n3c(C(F)F)nc4ccc(N)cc43)n2)CCO1 [compound 32]
226 to 227 °C (dec.)
Nc1ccc2nc(C(F)F)n(-c3nc(N4CCOCC4)cc(N4CCOCC4)n3)c2c1 [compound 35]
218 to 219 °C (dec.)
C[C@@H]1OCCN(c2cc(N3CCOCC3)nc(-n3c(NC=O)nc4ccccc43)n2)[C@H]1C (relative stereo) [compound 27]
143 to 146 °C
C[C@@H]1OCCN(c2cc(N3CCOCC3)nc(-n3c(N)nc4ccccc43)n2)[C@@H]1C.Cl (relative stereo) [compound 30]
151 to 155 °C

For each of the items listed, what is its melting point?
1. Oc1ccc2c(c1)nc(C(F)F)n2-c1nc(N2CCOCC2)cc(N2CCOCC2)n1 [compound 40]
2. C[C@@H]1CN(c2nc(N3CCOCC3)nc(-n3c(NC=O)nc4ccccc43)n2)C[C@H](C)O1 [compound 28]
3. C[C@@H]1OCCN(c2cc(N3CCCC3CO)nc(-n3c(CO)nc4ccccc43)n2)[C@@H]1C (relative stereo) [compound 12]
4. CC(=O)Nc1nc2ccccc2n1-c1nc(N2CCOCC2)nc(N2CCOCC2)n1 [compound 22]

223 to 226 °C (dec.)
242 to 244 °C
104 to 108 °C
243 to 245 °C
